# ASSAY OVERVIEW: chemical genetic growth profiling, strain panel (AID 1159580);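 also: tested at 20 µM; growth read once vehicle control cultures reached saturation at 30 °C; 1 = growth at the plate median or of vehicle wells; lower values mean less growth of the strain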
# MEASUREMENT CONTEXT: S. cerevisiae deletion strains, growth OD, locus YDL101C, strain DUN1, hits give low values
The whole screen tested about 5,500 compounds, of which about 2,000 (36%) were called active. Another 18% or so got no clear call; they are omitted. The list shows a part of the results.
Give measured normalized growth for each item. Keep answers brief.

# input I have this compound here, CC(=O)N1CCCC1C(=O)O (stereo not drawn) , and I need its recorded normalized growth.
# output 1.01 (inactive)

# input Which normalized growth is listed for c1ccc(-c2ncc3ccccn23)cc1 ?
# output 0.975 (inactive)

# input What does the data say about its normalized growth? Entry: COc1ccc(Br)c(-c2nnc(-c3ccccc3[N+](=O)[O-])o2)c1
# output 0.985 (inactive)

# input What does the record list as normalized growth for COc1ccccc1N1CCN(C(=O)C(C)Nc2ccccn2)CC1 (stereo not drawn) ?
# output 0.985 (inactive)

# input I'd like to know its normalized growth. The compound in question is COP(N)(=O)SC (stereo not drawn)
# output 0.978 (inactive)

# input Item under review: COc1ccccc1N1CCN(C(=O)Nc2cc(Cl)cc(Cl)c2)CC1 . Reported normalized growth?
# output 0.967 (inactive)

# input Sample CC1(C)O[C@@H]2CC3C4C[C@H](F)C5=CC(=O)CC[C@]5(C)C4[C@@H](O)C[C@]3(C)[C@]2(C(=O)CO)O1 (stereo partly drawn) — what was its normalized growth?
# output 1.02 (inactive)

# input Requested read-out: normalized growth. Entry: Nc1ccc(S(=O)(=O)Nc2ncccn2)cc1
# output 0.981 (inactive)

# input Any idea what its normalized growth is? The compound is Cc1ccccc1N1C(=O)c2cc(S(N)(=O)=O)c(Cl)cc2NC1C (stereo not drawn)
# output 0.985 (inactive)

# input Query (compound): O=C(O)c1cc(O)ccc1O ; field requested: normalized growth
# output 0.999 (inactive)

# input Query (compound): CC1(C)S[C@@H]2[C@H](NC(=O)C(C(=O)O)c3ccccc3)C(=O)N2[C@H]1C(=O)O (stereo partly drawn) ; field requested: normalized growth
# output 0.982 (inactive)

# input Any idea what normalized growth was measured for C[C@H]1[C@H](C)CC[C@]2(C(=O)O)CC[C@]3(C)C(=CCC4[C@@]5(C)C[C@@H](O)[C@H](O)[C@@](C)(CO)C5[C@H](O)C[C@]43C)[C@H]12 (stereo partly drawn) ?
# output 0.973 (inactive)

# input // lookup normalized growth for O=[N+]([O-])c1cnc2ccccn12
# output 1 (inactive)

# input Which normalized growth is listed for Cc1ccc(Sc2ncccc2NS(=O)(=O)c2ccc(Cl)cc2)cc1 ?
# output 0.947 (inactive)

# input Any idea what its normalized growth is? The compound is N#Cc1nccnc1N1CCN(C(=O)Nc2cc(Cl)cc(Cl)c2)CC1
# output 0.975 (inactive)

# input GET /values?readout=normalized growth&item= O=C(NC1CCCCC1)N1CCN(c2ncccc2C(F)(F)F)CC1
# output 0.998 (inactive)

# input Please report the recorded normalized growth for COc1cc([N+](=O)[O-])c(OC)cc1SCC(=O)NNC(=O)c1cc(OC)c(OC)c(OC)c1 .
# output 0.968 (inactive)

# input What measured normalized growth goes with COC(CNc1cccc(Cl)c1C#N)OC ?
# output 0.983 (inactive)

# input Look up normalized growth for this compound: COc1ccccc1N1CCN(C(=O)c2cccs2)CC1
# output 0.991 (inactive)

# input Dear colleague, I am looking for the recorded normalized growth of the following compound: O=[N+]([O-])c1cccnc1Oc1ccc(Cl)cc1
# output 0.875 (active)

# input Give its normalized growth value. Item: CC1Cc2ccccc2N1NC(=O)c1ccc(Cl)c(S(N)(=O)=O)c1 (stereo not drawn)
# output 1.01 (inactive)

# input What value of normalized growth has been recorded for this entry: CCOC(=O)CC(SP(=S)(OC)OC)C(=O)OCC (stereo not drawn)
# output 1 (inactive)

# input Query: normalized growth; subject: COC(=O)c1cccnc1Sc1ccc(C)cc1
# output 0.991 (inactive)
